Ref: patent US20190270826A1

measurement_target: T1, recombinant human IL1RAP ECD (human, UniProt Q9NPH3 21-367)
T1 construct: His-tagged; also called hIL1RAP-ECD; rhuIL1RAP
T1 sequence: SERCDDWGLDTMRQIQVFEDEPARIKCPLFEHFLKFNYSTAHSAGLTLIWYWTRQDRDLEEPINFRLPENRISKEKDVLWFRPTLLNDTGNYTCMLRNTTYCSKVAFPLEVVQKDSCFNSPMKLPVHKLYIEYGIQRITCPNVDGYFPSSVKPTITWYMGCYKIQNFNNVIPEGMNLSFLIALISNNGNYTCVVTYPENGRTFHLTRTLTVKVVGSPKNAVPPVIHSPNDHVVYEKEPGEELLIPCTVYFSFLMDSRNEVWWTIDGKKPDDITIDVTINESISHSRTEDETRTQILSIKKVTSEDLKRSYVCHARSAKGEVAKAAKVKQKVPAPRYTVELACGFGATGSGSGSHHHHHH
experimental_protocol: SPR (ProteOn)
attribute_measured: kon (M⁻¹ s⁻¹)
Reply numerically in M⁻¹ s⁻¹, unit not repeated.

*Q* Which value of kon has been reported for IAPB61, 25D12 (hybridoma mAb, unpurified) (antibody, V domains shown, OmniRat hybridoma product (rat constant region)) VH: QLQLQESGPGLVKPSETLSLTCTVSGVSISSSTYYWGWLRQPPGMGLEWTGSIYFTGNTYYNPSLKSRVTISVDTSRNQFSLKLSSVTAADTAVYYCGSLFGDYGYFDYWGQGTLVTVSS VL: EIVMTQSPATLSVPPGERATLSCRASQFISSNLAWYQQKPGQAPRLLIYGASTRATGIPARFSGSGSGTDFTLTISSLQSEDFAVYYCQQYNNWPSTFGPGTKVDIK in the records?
*A* 810000

*Q* Sample IAPB47 (antibody, human IgG4 S228P, kappa, F234A L235A, V domains shown, IgG4-PAA; whole chains) VH: EVQLVQSGAEVKKPGESLKISCKGSGYSFTSYWIGWVRQMPGKGLEWMGIIYPSDSYTRYSPSFQGQVTISADKSISTAYLQWSSLKASDTAMYYCARRNSAENYADLDYWGQGTLVTVSS VL: EIVLTQSPGTLSLSPGERATLSCRASQSISNDLNWYQQKPGKAPKLLIYYASSLQSGVPSRFSGSGSGTDFTLTINSLQPEDFATYYCQQSFTAPLTFGQGTKVEIKR — what was its kon?
*A* 653000

*Q* Data request, read-out kon, for IAPB57, 5G08 (hybridoma mAb, unpurified) (antibody, V domains shown, OmniRat hybridoma product (rat constant region)) VH: QLQLQESGPGLVKPSETLSLTCTVSGGSISSSTYYWGWIRQPPGKGLEWIGSIYFTGSTDYNPSLKSRVSISVDTSKNQFSLKLSSVTAADTAVYYCAKEDDSSGYYSFDYWGQGNLVTVSS VL: DIQLTQSPSFLSASVGDRVTITCRASQGISSYLAWYQQKPGKAPKLLIYAASTLQSGVPSRFSGSGSGTEFTLTISSLQPEDFATYYCQQVNSYPLTFGGGTKVEIK
*A* 807000
